experiment: Plasma clearance in Sprague-Dawley rat at 1 mg/kg, iv and 2 mg/kg, po; format: ADME, organism-based
Hi there, I'd appreciate the recorded clearance for every entry that follows.
Answers are plain numbers, in mL/min/kg.

Data request: Which clearance value belongs to `COc1cc(-c2cn(Cc3ccc(C(C)(C)C)cc3)nn2)ccc1-n1cnc(C)c1` ?
Data returned: 24

# next molecule below
Data request: Could you share which clearance value was measured for `COc1cc(-c2cn(Cc3ccc(-c4nc5ccccc5o4)cc3)nn2)ccc1-n1cnc(C)c1` ?
Data returned: 13.7

----------
experiment: Ratio of drug level in brain to plasma in Sprague-Dawley rat at 100 mg/kg, po after 6 hrs; assay type: ADME, organism-based; set-up: dose 100 mg/kg, route oral; settings: read-out: BPR
value-kind: Kp at 6 h
Numbers only.

Data request: Please look up its Kp at 6 h: `COc1cc(-c2cn(Cc3ccc(C(C)(C)C)cc3)nn2)ccc1-n1cnc(C)c1`
Data returned: 1.2
